- testSystem: cloned human dopamine D2Long receptors (Homo sapiens, UniProt P14416)
- Construct: expressed in transfected cells; membranes used
- Sequence (P14416 whole entry): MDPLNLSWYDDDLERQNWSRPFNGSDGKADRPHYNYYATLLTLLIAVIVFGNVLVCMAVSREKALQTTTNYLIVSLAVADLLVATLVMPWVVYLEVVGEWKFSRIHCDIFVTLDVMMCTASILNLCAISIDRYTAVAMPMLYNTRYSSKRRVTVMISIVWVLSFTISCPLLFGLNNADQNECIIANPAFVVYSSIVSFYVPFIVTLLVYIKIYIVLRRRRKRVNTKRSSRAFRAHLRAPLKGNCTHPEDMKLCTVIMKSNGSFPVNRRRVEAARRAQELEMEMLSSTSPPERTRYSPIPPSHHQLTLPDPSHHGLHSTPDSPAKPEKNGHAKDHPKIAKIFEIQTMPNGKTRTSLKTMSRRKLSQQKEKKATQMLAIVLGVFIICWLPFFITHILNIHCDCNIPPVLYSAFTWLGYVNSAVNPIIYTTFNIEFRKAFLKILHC
- experimentDescription: biochemical
- Assay type: binding
Counter-ions that a name gives are not always drawn.
quantity: Ki (nM)

>>> measurednumber("O=CNC[C@@H]1O[C@H](C2CCN(CCCC(c3ccc(F)cc3)c3ccc(F)cc3)CC2)Cc2c1ccc1c2OC2(CCCCC2)O1 [Example 28, Oxalate Hemihydrate]")
639

----------
- testSystem: cloned human dopamine D2Long receptors (Homo sapiens)
- Construct: expressed in transfected cells; membranes used
- experimentDescription: biochemical
- Type: binding
- measurementContext: Binding to Human D2Long Receptors; displacement of [3H]N-methyl spiroperidol (0.4 nM), membranes of transfected Chinese Hamster Ovary cells, 37 °C, 30 min; read-out: Ki
Where a name gives a salt, the structure may show the parent alone.
Ki overview
quantity: Ki (nM)

>>> measurednumber("CCN1CCC([C@@H]2Cc3c(ccc(O)c3O)[C@H](CN)O2)CC1 (relative stereo) [Example 8, Dihydrobromide]")
2510
>>> measurednumber("CNC[C@@H]1O[C@H](C2CCN(CCc3ccc(OC)cc3)CC2)Cc2c1ccc(O)c2O (relative stereo) [Example 10, Dihydrochloride]")
2500
>>> measurednumber("Br.Br.CC(=O)Oc1ccc2c(c1OC(C)=O)C[C@@H](C1CCN(CCc3ccccc3)CC1)O[C@H]2CN (relative stereo) [Example 4E, Dihydrobromide]")
1520
>>> measurednumber("NC[C@@H]1O[C@H](C2CCN(CCc3cccs3)CC2)Cc2c1ccc(O)c2O (relative stereo) [Example 25, Dihydrochloride Hydrate]")
2100
>>> measurednumber("CS(=O)(=O)N1CCC([C@@H]2Cc3c(ccc(O)c3O)[C@H](CN)O2)CC1 (relative stereo) [Example 3D, Hydrobromide]")
4200
>>> measurednumber("Cc1ccccc1CCN1CCC([C@@H]2Cc3c(ccc(O)c3O)[C@H](CN)O2)CC1 (relative stereo) [Example 26, Dihydrochloride]")
684
>>> measurednumber("Br.Br.NC[C@@H]1O[C@H](C2CCN(CCCc3noc4cc(F)ccc34)CC2)Cc2c1ccc(O)c2O (relative stereo) [Example 9, Dihydrobromide]")
178
